Overview of recorded inhibition for various compounds
Target: Cysteine protease ATG4B (Homo sapiens)
Experiment: ATG4B protease inhibitors, primary screen, biochemical, fluorescence, uHTS (AID 504462)
Conditions: ATG4B cleavage of LC3-PLA2, NBD-HPC fluorescence, 1 h; at 8.33 µM; active compounds read high
The whole screen tested about 340,000 compounds, of which about 1,700 (0.5%) were called active. Only a selection was taken, and actives are over-represented in it overall.
measureName: inhibition (%)

CC(=O)NC(NC(=S)Nc1c(C)n(C)n(-c2ccccc2)c1=O)C(Cl)(Cl)Cl (stereo not given); -9.32
N#Cc1c(-c2ccc(F)cc2)nc(-c2ccccc2)[nH]c1=O; 5.66
CCC(C)c1ccc(NC(=S)NCc2ccccn2)cc1 (stereo not given); 2.58
NC(=O)Cc1ccc2c(c1)[nH]c1ccccc12; 47.3
CCOC(=O)c1c(-c2ccccc2)oc2ccc(OCC(=O)NN)cc12; -2.49
COc1ccc(/C=C2\SC(=O)N(CCC(=O)NCCCn3ccnc3)C2=O)cc1; 3.21
N#CCN(C(=O)COC(=O)C1CC2CCCC(C1)C2=O)c1ccccc1 (stereo not given); 1.42
Cc1cnc(C(=O)N2CCCC(N3CCN(c4ccccc4F)CC3)C2)cn1 (stereo not given); 8.65
Cc1cccc(C=CC(=O)c2ccc(Cl)cc2)c1; -4.71
Cc1ccc(C)c(-n2cc(CN3CCN(C(=O)c4ncn[nH]4)CC3)c(-c3ccccc3)n2)c1; 2.98
CSc1ccccc1C(=O)NCc1ccccc1; 5.57
CC1(C)CC(=O)C=C(NCCCN2CCCC2=O)C1; 2.66
Cc1ccc(CNC(=O)c2cccnc2Cl)cc1; -10.1
COc1ccc(/C=C2\SC(=O)N(CCC(=O)NC3CCS(=O)(=O)C3)C2=O)cc1 (stereo not given); 5.85
CCOC(=O)c1c(-c2ccccc2)oc2cc(Br)c(O)c(C=O)c12; 49.9
CC1(C)Cc2cccc(OCC(=O)Nc3nccs3)c2O1; -9.2
COc1ccc(-n2cnnc2SCC(=O)Nc2cccc([N+](=O)[O-])c2)cc1; -7.34
CCOC(=O)C1=C(C)c2ccccc2OC1(C)C(=O)OCC (stereo not given); 2.41
Cc1cccc(N2O[C@H]3C=CC2CCCC3)n1; -2.38
O=C(CC1C(=O)NCCN1CC(c1ccccc1)c1ccccc1)NCC1CCOCC1 (stereo not given); 5.98

---

Molecular target: Cysteine protease ATG4B (Homo sapiens)
Assay: ATG4B protease inhibitors, primary screen, biochemical, fluorescence, uHTS (AID 504462)
Conditions: ATG4B cleavage of LC3-PLA2, NBD-HPC fluorescence, 1 h; at 8.33 µM; active compounds read high
Out of some 340,000 compounds screened, about 1,700 (0.5%) were called active. Many of the other results were omitted from the sample, so actives are more common in it than they were.
Overview of recorded inhibition for various compounds
measureName: inhibition (%)

CCOc1ccc2c(c1)C(c1ccc(C)cc1)=NNC(c1ccc(C)cc1)=N2; 65.9
Fc1ccc2c(c1)C(c1cccnc1)=NNC(c1cccs1)=N2; -1.31
CCn1c(SCC(=O)N/N=C/C=C/c2ccccc2[N+](=O)[O-])nnc1-c1ccccc1; 1.16
Fc1cccc(Cl)c1CSc1ccc(-c2ccco2)nn1; 41.7
Cc1nn(-c2ccccc2)c(C)c1/C=N/NC(=O)CSc1nc2ccccc2c(=O)n1-c1ccccc1; 45.1
O=C(C1CCN(S(=O)(=O)Cc2ccccc2)CC1)N1CCCc2ccccc21; 13.8
Cc1ccc(-n2c(SCC(=O)N/N=C/C=C/c3ccccc3[N+](=O)[O-])nc3ccccc3c2=O)cc1; 54.4
